Molecular target: T1, Anti-CD28 Fab (SEQ ID NOs: 696, 697)
T1 construct: In the phage ELISA the Fab was biotinylated and captured on neutravidin coated plates
T1 sequence (VH, as listed by the source, chain 1 of 2): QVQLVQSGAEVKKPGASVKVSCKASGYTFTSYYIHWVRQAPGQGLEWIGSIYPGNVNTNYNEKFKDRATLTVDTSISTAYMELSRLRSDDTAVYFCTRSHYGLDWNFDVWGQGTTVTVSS
T1 sequence (VL, as listed by the source, chain 2 of 2): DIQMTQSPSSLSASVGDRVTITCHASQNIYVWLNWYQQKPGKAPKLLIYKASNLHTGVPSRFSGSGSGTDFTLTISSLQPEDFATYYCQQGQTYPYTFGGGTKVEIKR
Test: phage binding ELISA, clonal phage on biotinylated anti-CD28 Fab captured on neutravidin plates;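 further: crude clonal phage supernatants added to wells pretreated with CD28 antigen or blocking buffer only, bound phage detected by HRP-linked anti-M13 antibody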
measurementLabel: Anti-CD28 Fab (SEQ ID NOs: 696, 697) signal

{"binder": "YCDGHSEAYMWKCL (tested as crude clonal phage supernatant) [Phage-969]", "recordedResult": 1.59}

So what's the measured Anti-CD28 Fab (SEQ ID NOs: 696, 697) signal for this one? YCEGHMPEYLQKCL (tested as crude clonal phage supernatant) [Phage-964]
1.6

So what's the measured Anti-CD28 Fab (SEQ ID NOs: 696, 697) signal for this one? YCAGHLDQYIEKCL (tested as crude clonal phage supernatant) [Phage-967]
1.6

So what's the measured Anti-CD28 Fab (SEQ ID NOs: 696, 697) signal for this one? YCDGHAQEFIWKCL (tested as crude clonal phage supernatant) [Phage-968]
1.6

So what's the measured Anti-CD28 Fab (SEQ ID NOs: 696, 697) signal for this one? YCSGHLPEYMWKCL (tested as crude clonal phage supernatant) [Phage-958]
1.61

So what's the measured Anti-CD28 Fab (SEQ ID NOs: 696, 697) signal for this one? YCEGHSAAYMQKCL (tested as crude clonal phage supernatant) [Phage-963]
1.6

So what's the measured Anti-CD28 Fab (SEQ ID NOs: 696, 697) signal for this one? YCDGHSVEYKLKCM (tested as crude clonal phage supernatant) [Phage-959]
1.61

So what's the measured Anti-CD28 Fab (SEQ ID NOs: 696, 697) signal for this one? YCDGHSVKYMAKCL (tested as crude clonal phage supernatant) [Phage-957]
1.61

So what's the measured Anti-CD28 Fab (SEQ ID NOs: 696, 697) signal for this one? YCDGHAQEYMVKCL (tested as crude clonal phage supernatant) [Phage-960]
1.61

So what's the measured Anti-CD28 Fab (SEQ ID NOs: 696, 697) signal for this one? YCDGHRLEYLEKCL (tested as crude clonal phage supernatant) [Phage-966]
1.6

So what's the measured Anti-CD28 Fab (SEQ ID NOs: 696, 697) signal for this one? YCDGHELQYMAKCL (tested as crude clonal phage supernatant) [Phage-965]
1.6

So what's the measured Anti-CD28 Fab (SEQ ID NOs: 696, 697) signal for this one? YCAGHSPEYMQKCL (tested as crude clonal phage supernatant) [Phage-961]
1.6

So what's the measured Anti-CD28 Fab (SEQ ID NOs: 696, 697) signal for this one? YCEGHLPLYMDKCL (tested as crude clonal phage supernatant) [Phage-962]
1.6
